Entry source: PubChem BioAssay

PROCEDURE_TEXT: modulators of HCV replicon luciferase signal, primary screen, HCV replication inhibitor project, Huh7 cells, luciferase reporter (AID 1109);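 note: huh7 hepatoma cells harbouring a luciferase neomycin HCV replicon reporter; luciferase luminescence as measure of HCV replicon replication; test concentration not given here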
TEST_SETTINGS: 48 h, higher = more signal
Assign True to entries whose z-score meets or exceeds -0.1; assign False to the rest.

IN: # bool: z-score of `C[C@@H](c1ccccc1)N1C(=O)[C@H]2[C@H]3[C@H](O)[C@H](O)CC(=NOCc4ccccc4)[C@@H]3CC[C@H]2C1=O` >= -0.1
OUT: False

IN: # bool: z-score of CCOC(=O)[C@H](Cc1ccccc1)NC(=O)CCC1CC(OC(=O)NCc2cccc3ccccc23)CC2(CCCC(COC(=O)NCC3CCCCC3)O2)O1 (some centres not stated) >= -0.1
OUT: False

IN: # bool: z-score of `CC(=O)OC[C@H]1O[C@H](CC=NOC[C@@H](O)COCc2ccco2)C=C[C@@H]1OC(C)=O` >= -0.1
OUT: True

IN: # bool: z-score of `COC(=O)[C@H](C)NC(=O)CC=C[C@@H](C)[C@@H]1C=C[C@H](O)[C@@H](CO)O1` >= -0.1
OUT: True

IN: # bool: z-score of `CC(C)=CCCC(C)=CCON=C1C[C@@H](O)[C@@H](O)[C@@H]2[C@@H]3C(=O)N(C4CCCCC4)C(=O)[C@@H]3CC[C@H]12` >= -0.1
OUT: False

IN: # bool: z-score of COC(=O)[C@H](C)NC(=O)CCC1CC(OC(=O)NCc2cccc3ccccc23)CC2(CCCC(COC(=O)NCCCN3CCCC3=O)O2)O1 (some centres not stated) >= -0.1
OUT: True

IN: # bool: z-score of `CC(=O)OC[C@H]1O[C@H](C#CCCc2ccccc2)C=C[C@@H]1OC(C)=O` >= -0.1
OUT: False

----------
PROCEDURE_TEXT: P. aeruginosa biofilm formation inhibitors, primary screen, PAO1 strain, BacTiter-Glo luminescence, LB-PBS (AID 1144)
TEST_SETTINGS: 12 h, higher = more signal
Assign y to entries whose z-score meets or exceeds 0.2; assign n to the rest.

IN: # bool: z-score of `CC(=O)OC[C@H]1O[C@@H](ON=C2[C@H]3CCn4c(=O)n(-c5ccccc5)c(=O)n4[C@H]3[C@H](O)[C@@H]3O[C@H]23)[C@H](OC(C)=O)[C@@H](OC(C)=O)[C@@H]1OC(C)=O` >= 0.2
OUT: y

IN: # bool: z-score of `CCN1C(=O)[C@H]2[C@H]3[C@H](O)[C@H](O)CC(=NOC[C@@H](O)[C@H]4O[C@@H]5OC(C)(C)O[C@@H]5[C@H]4O)[C@@H]3CC[C@H]2C1=O` >= 0.2
OUT: y

IN: # bool: z-score of `CCCNC(=O)OC[C@H]1O[C@H](CCON=C[C@@H](NS(=O)(=O)c2ccc(C)cc2)[C@H](C)C=CCC(=O)OC)C=C[C@@H]1Oc1ccc(OC)cc1` >= 0.2
OUT: n

IN: # bool: z-score of CCOC(=O)[C@H](Cc1ccccc1)NC(=O)CCC1CC(OC(=O)NCCc2ccc(F)cc2)CC2(CCCC(COC(=O)NCCOc3ccccc3)O2)O1 (stereo partly specified) >= 0.2
OUT: n

IN: # bool: z-score of `C#CCCCON=C1C[C@@H](O)[C@@H](O)[C@@H]2[C@@H]3C(=O)N(C[C@@H]4CCCO4)C(=O)[C@@H]3CC[C@H]12` >= 0.2
OUT: y

IN: # bool: z-score of `COCC#Cc1ccc([C@@H]2N[C@H](C(=O)O)CC[C@H]2C)cc1` >= 0.2
OUT: n

----------
ASSAY_SYSTEM: Luciferin 4-monooxygenase (Photinus pyralis)
PROCEDURE_TEXT: firefly luciferase enzyme inhibitors, primary screen, biochemical, luminescence, purified enzyme, 2006 set (AID 1141);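 note: cell-free assay with purified firefly luciferase at 100 ng per well in PBS; test concentration not given here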
TEST_SETTINGS: SteadyGlo luminescence, 30 min, higher = more signal, called active from +8 up or from −8 down
Assign YES to entries whose z-score meets or exceeds 0.3; assign NO to the rest.

IN: # bool: z-score of `COC(=O)CC=C1c2ccccc2[C@H](OC)[C@H]1C` >= 0.3
OUT: YES

IN: # bool: z-score of `CC(CCC(=O)OC[C@H]1O[C@H](C#Cc2ccccc2)C=C[C@@H]1Oc1ccc(C)cc1)=NO[C@@H](C)c1cc(-c2c(C)cc(C)cc2C)no1` >= 0.3
OUT: NO

IN: # bool: z-score of `COc1ccc(OC[C@@H](CO)OC)cc1` >= 0.3
OUT: NO

IN: # bool: z-score of Cc1cc2c(nc1C)CCCCN2CC(O)CN1CCCc2nc(-c3ccc(Br)cc3)ccc21 (configuration not stated) >= 0.3
OUT: NO

IN: # bool: z-score of `CCc1cc2c(nc1CC)CCN(CCC(C)=NOCC[C@@H]1C=C[C@H](OC(C)=O)[C@@H](COC(C)=O)O1)C2` >= 0.3
OUT: YES

IN: # bool: z-score of `O=C1[C@H]2[C@H]3[C@H](O)[C@H](O)CC(=NOCc4ccccc4)[C@H]3CC[C@H]2C(=O)N1C1CCCCC1` >= 0.3
OUT: NO

IN: # bool: z-score of CCOC(=O)[C@H](Cc1ccccc1)NC(=O)CCC1CC(OC(=O)NCCc2ccc(F)cc2)CC2(CCCC(COC(=O)NCCOc3ccccc3)O2)O1 (some centres not stated) >= 0.3
OUT: YES

IN: # bool: z-score of `C=CC[C@@H]1C=C[C@H](ON=CC[C@@H]2C=C[C@H](OC(C)=O)[C@@H](COC(C)=O)O2)[C@@H](CO)O1` >= 0.3
OUT: YES

IN: # bool: z-score of `CON=C(C)CCN1CCCc2nc(C)c(C)cc21` >= 0.3
OUT: NO

IN: # bool: z-score of `CO[C@@H]1C=CCC(=O)N[C@@H](C)C(=O)OC[C@@H](NS(=O)(=O)c2ccc(C)cc2)[C@H](C)C=CCC(=O)OC[C@H]1C` >= 0.3
OUT: NO

IN: # bool: z-score of `CO[C@@H]1C=CCC(=O)N[C@@H](C)C(=O)OC[C@@H](OC)[C@H](C)C=CCC(=O)OC[C@H]1C` >= 0.3
OUT: NO

IN: # bool: z-score of `COc1ccc(COC(=O)NN=C2C[C@@H](O)[C@@H](O)[C@@H]3[C@@H]4C(=O)N([C@@H](C)c5ccccc5)C(=O)[C@@H]4CC[C@H]23)cc1` >= 0.3
OUT: YES

IN: # bool: z-score of `C[C@@H]1CC[C@@H](C(=O)O)N[C@H]1c1cccc(N2CCOCC2)c1` >= 0.3
OUT: NO

IN: # bool: z-score of `CC(C)(C)N1C(=O)[C@H]2[C@H]3[C@H](O)[C@H](O)CC(=NOC[C@@H](O)COCc4ccco4)[C@H]3CC[C@H]2C1=O` >= 0.3
OUT: NO

IN: # bool: z-score of O=C(NCCC[N+]1=CC=NC1c1ccccc1)N1CCCc2nc(-c3ccc(Br)cc3)ccc21 (configuration not stated) >= 0.3
OUT: YES

IN: # bool: z-score of `CC(=O)OC[C@H]1O[C@H](C#CCCc2ccccc2)C=C[C@@H]1OC(C)=O` >= 0.3
OUT: NO

IN: # bool: z-score of CCOC(=O)[C@H](CC(C)C)NC(=O)CCC1CC(OC(=O)NCc2ccc3c(c2)OCO3)CC2(CCCC(COC(=O)NCCC(C)C)O2)O1 (some centres not stated) >= 0.3
OUT: YES

----------
PROCEDURE_TEXT: adipocyte viability effects, profiling panel, cell-based, 3T3-L1 adipocytes, calcein-AM fluorescence, 48 h, basal (AID 1163); note: test concentration not given here
TEST_SETTINGS: 3T3-L1 adipocytes viability, higher = more signal
// boundary case: z-score equal to 0.2 maps to FALSE; strictly smaller maps to TRUE

IN: Confirm or reject: z-score of `C[C@@H](c1ccccc1)N1C(=O)[C@H]2[C@H]3[C@H](O)[C@H](O)CC(=NOC[C@@H](O)COCc4ccco4)[C@H]3CC[C@H]2C1=O` lies strictly below 0.2
OUT: FALSE

IN: Confirm or reject: z-score of `O=C1C[C@H](c2ccccc2)[C@H](c2ccc(Br)cc2)O1` lies strictly below 0.2
OUT: TRUE

IN: Confirm or reject: z-score of `O=C(NN=C1C[C@@H](O)[C@@H](O)[C@@H]2[C@@H]3C(=O)N(c4ccc(F)cc4F)C(=O)[C@@H]3CC[C@H]12)OCc1ccccc1` lies strictly below 0.2
OUT: TRUE

IN: Confirm or reject: z-score of `CC(C)CON=C1C[C@@H](O)[C@@H](O)[C@@H]2[C@@H]3C(=O)N([C@@H](C)c4ccccc4)C(=O)[C@@H]3CC[C@@H]12` lies strictly below 0.2
OUT: TRUE

IN: Confirm or reject: z-score of COC(=O)[C@H](C)NC(=O)CCC1CC(OC(=O)NCc2cccc3ccccc23)CC2(CCCC(COC(=O)NCc3cccc(C(F)(F)F)c3)O2)O1 (stereo partly specified) lies strictly below 0.2
OUT: TRUE

IN: Confirm or reject: z-score of CC(C)=NOC(C)CN1CCCCc2nc(C)c(C)cc21 (stereo unspecified) lies strictly below 0.2
OUT: TRUE

IN: Confirm or reject: z-score of `CC1(C)O[C@H]2O[C@H]([C@H](O)CON=C3[C@H]4CCn5c(=O)n(-c6ccccc6)c(=O)n5[C@H]4[C@H](O)[C@@H]4O[C@H]34)[C@H](O)[C@H]2O1` lies strictly below 0.2
OUT: TRUE

IN: Confirm or reject: z-score of `O=C1C2=CC[C@H]3C(=O)N(C[C@@H]4CCCO4)C(=O)[C@H]3[C@H]2[C@H](O)[C@@H]2O[C@H]12` lies strictly below 0.2
OUT: TRUE

IN: Confirm or reject: z-score of `CC(CCN1CCCc2nc(C)c(C)cc21)=NOC[C@@H](C)[C@H](OCc1ccccc1)C(C)C` lies strictly below 0.2
OUT: FALSE

IN: Confirm or reject: z-score of `CCOC(=O)CCN1C(=O)[C@H]2[C@@H]3C(=CC[C@H]2C1=O)C(=O)[C@H]1O[C@H]1[C@H]3O` lies strictly below 0.2
OUT: FALSE

IN: Confirm or reject: z-score of `O=C1C2=CC[C@H]3C(=O)N(c4ccc(F)cc4F)C(=O)[C@H]3[C@H]2[C@H](O)[C@@H]2O[C@H]12` lies strictly below 0.2
OUT: TRUE

IN: Confirm or reject: z-score of `CON(C)C(=O)c1nnc2c(n1)[nH]c1ccccc12` lies strictly below 0.2
OUT: FALSE

IN: Confirm or reject: z-score of `CC(C)(C)N1C(=O)[C@H]2[C@H]3[C@H](O)[C@H](O)CC(=NOC[C@@H](O)COCc4ccco4)[C@H]3CC[C@H]2C1=O` lies strictly below 0.2
OUT: FALSE

IN: Confirm or reject: z-score of C[C@]12CCC3c4ccc(OCC5CO5)cc4CCC3C1CC[C@@H]2O (stereo partly specified) lies strictly below 0.2
OUT: FALSE

IN: Confirm or reject: z-score of `CCCNC(=O)OC[C@H]1O[C@H](CCON=C2c3cc(OC)ccc3O[C@H](c3cccc(OC)c3)[C@H]2O)C=C[C@@H]1Oc1ccc(OC)cc1` lies strictly below 0.2
OUT: FALSE

IN: Confirm or reject: z-score of `CC(=O)OC[C@H]1O[C@@H](ON=C(C)C)[C@H](OC(C)=O)[C@@H](OC(C)=O)[C@@H]1OC(C)=O` lies strictly below 0.2
OUT: TRUE

IN: Confirm or reject: z-score of `CON=C1c2cc(OC)ccc2O[C@H](c2cccc(OC)c2)[C@H]1O` lies strictly below 0.2
OUT: FALSE

IN: Confirm or reject: z-score of `CCOC(=O)CCN1C(=O)[C@H]2[C@H]3[C@H](O)[C@H](O)CC(=NNC(=O)OCc4ccccc4)[C@H]3CC[C@H]2C1=O` lies strictly below 0.2
OUT: FALSE

IN: Confirm or reject: z-score of COC(=O)[C@H](C)NC(=O)CCC1CC(OC(=O)NCCc2ccc(F)cc2)CC2(CCCC(COC(=O)NCCOc3ccccc3)O2)O1 (stereo partly specified) lies strictly below 0.2
OUT: TRUE

IN: Confirm or reject: z-score of COC(=O)[C@H](C)NC(=O)CCC1CC(OC(=O)NCc2ccc3c(c2)OCO3)CC2(CCCC(COC(=O)NCc3ccccc3)O2)O1 (stereo partly specified) lies strictly below 0.2
OUT: TRUE

IN: Confirm or reject: z-score of `O=C1C=C[C@@H](O)[C@@H]2[C@@H]3C(=O)N(Cc4ccccc4)C(=O)[C@@H]3CC[C@@H]12` lies strictly below 0.2
OUT: FALSE

IN: Confirm or reject: z-score of CC(CCC(=O)OC[C@H]1O[C@H](C#Cc2ccccc2)C=C[C@@H]1Oc1ccc(C)cc1)=NOC(C)CN1CCCc2nc(C)c(C)cc21 (stereo partly specified) lies strictly below 0.2
OUT: TRUE

IN: Confirm or reject: z-score of `CC#CCOCCC=C1c2ccccc2[C@@H](OC)[C@@H]1C` lies strictly below 0.2
OUT: TRUE

IN: Confirm or reject: z-score of `CSCC[C@@H]1NC(=O)CC=C[C@@H](C)COC(=O)[C@H](C)COC1=O` lies strictly below 0.2
OUT: FALSE

IN: Confirm or reject: z-score of `COc1ccc(OC[C@H]2CN3[C@@H](CC[C@@H](C)[C@@H]3c3ccc(Br)cc3)C(=O)O2)cc1` lies strictly below 0.2
OUT: TRUE

IN: Confirm or reject: z-score of `CCCC[C@H]1CN2[C@@H](CC[C@@H](C)[C@@H]2c2ccc(Br)cc2)C(=O)O1` lies strictly below 0.2
OUT: FALSE

IN: Confirm or reject: z-score of `CC(C)[C@@H](OCc1ccccc1)[C@H](C)C=NO[C@@H](C)c1cn([C@H](CO)Cc2ccccc2)nn1` lies strictly below 0.2
OUT: TRUE

IN: Confirm or reject: z-score of COC(=O)[C@H](C)NC(=O)CCC1CC(OC(=O)NCc2cccc3ccccc23)CC2(CCCC(COC(=O)NCCCN3CCCC3=O)O2)O1 (stereo partly specified) lies strictly below 0.2
OUT: TRUE

IN: Confirm or reject: z-score of `COC(=O)C1=C(C)N(Cc2ccccc2)C2=C3C(=O)OCC[C@@H]3[C@@](O)(C(=O)OC)C(=O)N2[C@@H]1c1ccccc1` lies strictly below 0.2
OUT: TRUE

IN: Confirm or reject: z-score of `CO[C@@H]1COC(=O)[C@H](CCSC)NC(=O)CC=C[C@@H](C)COC(=O)[C@@H]2CCCN2C(=O)CC=C[C@H]1C` lies strictly below 0.2
OUT: TRUE

IN: Confirm or reject: z-score of `COC(=O)[C@@H]1CC[C@H](C)[C@@H](c2ccc(Br)cc2)N1C[C@@H](O)CN=[N+]=[N-]` lies strictly below 0.2
OUT: FALSE
